The following compounds are shown together with reported pIC50 values.
Molecular target: EP2 subtype of the human PGE2 receptor (Homo sapiens)
Assay: cAMP antagonism test on the human EP2 receptor (HTRF cAMP detection)
Assay type: cell-based
Conditions: hEP2 receptor, read-out: Antagonism hEP2 IC50
pIC50: −log10 of the molar value.
Parameter: pIC50

{"Query smiles": "Cc1c(C(=O)NCCOCC2CC2)ccc2nn(CC3CN(C(=O)c4ccc(Cl)cc4)C3)cc12", "Val": 7.53}
{"Query smiles": "Cc1c(C(=O)NCC(F)(F)F)ccc2nn(CC3CCN(C(=O)c4ccc(S(F)(F)(F)(F)F)cc4)CC3)cc12", "Val": 7.08}
{"Query smiles": "COCCNC(=O)c1ccc2nn(CC3CCN(C(=O)c4ccc(-c5ncco5)cc4)CC3)cc2c1C", "Val": 7.16}
{"Query smiles": "COCCNC(=O)c1cc2cn(CC3CCN(C(=O)c4ccc(C(F)(F)F)c(F)c4)CC3)nc2cc1C", "Val": 7.09}
{"Query smiles": "Cc1c(C(=O)NCC(F)(F)F)ccc2nn(CC3CCN(C(=O)c4ccc(-c5ccc(C(F)(F)F)cc5)cc4)CC3)cc12", "Val": 7.37}
{"Query smiles": "COCCNC(=O)c1ccc2nn(CC3CCN(C(=O)c4nc5ccccc5s4)CC3)cc2c1C", "Val": 8.05}
{"Query smiles": "O=C(NCCOCC1CC1)c1ccc2nn(CC3CCN(C(=O)c4ccc(Oc5ccc(F)cc5)cc4)CC3)cc2c1OC(F)F", "Val": 7.86}

###

The following molecules are shown together with reported pIC50 values.
Target: EP2 subtype of the human PGE2 receptor (Homo sapiens, UniProt P43116)
Sequence (P43116 whole entry): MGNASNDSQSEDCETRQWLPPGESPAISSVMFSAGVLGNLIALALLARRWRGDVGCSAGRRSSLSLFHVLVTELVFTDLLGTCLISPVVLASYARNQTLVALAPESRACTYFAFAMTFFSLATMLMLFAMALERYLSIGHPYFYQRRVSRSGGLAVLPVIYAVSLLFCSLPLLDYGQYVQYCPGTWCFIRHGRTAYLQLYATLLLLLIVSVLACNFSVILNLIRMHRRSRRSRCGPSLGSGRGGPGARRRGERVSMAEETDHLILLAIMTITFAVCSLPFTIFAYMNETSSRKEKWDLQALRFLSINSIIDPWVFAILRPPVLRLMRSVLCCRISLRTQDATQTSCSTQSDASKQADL
Assay: cAMP antagonism test on the human EP2 receptor (HTRF cAMP detection)
Format: cell-based
Details: hEP2 receptor, read-out: Antagonism hEP2 IC50
pIC50: −log10 of the molar value.
Parameter: pIC50

{"Molecule": "COCCNC(=O)c1cc2cn(CC3CCN(C(=O)c4ccc(S(F)(F)(F)(F)F)cc4)CC3)nc2cc1C [Example 210]", "System under test": "EP2 subtype of the human PGE2 receptor (Homo sapiens, UniProt P43116)", "Val": 7.71}
{"Molecule": "COCCNC(=O)c1ccc2nn(CC3CCN(C(=O)c4ccc(-c5ccc(OC)cc5F)cc4F)CC3)cc2c1C [Example 364]", "System under test": "EP2 subtype of the human PGE2 receptor (Homo sapiens, UniProt P43116)", "Val": 8.18}
{"Molecule": "Cc1c(C(=O)NCC(F)(F)F)ccc2nn(CC3CCN(C(=O)c4ccc(Oc5ccc(C(F)(F)F)cc5)cc4)CC3)cc12 [Example 291]", "System under test": "EP2 subtype of the human PGE2 receptor (Homo sapiens, UniProt P43116)", "Val": 8.23}
{"Molecule": "O=C(NCCOCC1CC1)c1ccc2nn(CC3CCN(C(=O)c4ccc(Cl)cc4)CC3)cc2c1OC(F)F [Example 229]", "System under test": "EP2 subtype of the human PGE2 receptor (Homo sapiens, UniProt P43116)", "Val": 7.99}

###

Target: EP2 subtype of the human PGE2 receptor (Homo sapiens, UniProt P43116)
Assay: cAMP antagonism test on the human EP2 receptor (HTRF cAMP detection)
Format: cell-based
Settings: hEP2 receptor, read-out: Antagonism hEP2 IC50
// returns Condition not met unless IC50 is strictly below 0.05 µM, in which case Condition met

{"Molecule": "Cc1ccc(Oc2ccc(C(=O)N3CCC(Cn4cc5c(C)c(C(=O)NCC(F)(F)F)ccc5n4)CC3)cc2)cc1 [Example 285]", "Class label": "Condition not met"}
{"Molecule": "COCCNC(=O)c1ccc2nn(CC3CN(C(=O)c4ccc(Cl)cc4F)C3)cc2c1C [Example 121]", "Class label": "Condition met"}
{"Molecule": "COCCNC(=O)c1ccc2nn(CC3CN(C(=O)c4ccc5ccc(OC)cc5c4)C3)cc2c1C [Example 175]", "Class label": "Condition met"}
{"Molecule": "Cc1c(C(=O)NCC#N)ccc2nn(CC3CCN(C(=O)c4ccc(Cl)cc4)CC3)cc12 [Example 401]", "Class label": "Condition not met"}
{"Molecule": "Cc1c(C(=O)NCCSC(F)(F)F)ccc2nn(CC3CN(C(=O)c4ccc(S(F)(F)(F)(F)F)cc4)C3)cc12 [Example 135]", "Class label": "Condition met"}
{"Molecule": "Cc1c(C(=O)NCC(C)OC2CCC2)ccc2nn(CC3CN(C(=O)c4ccc(Cl)cc4)C3)cc12 (single isomer, unassigned) [Example 156]", "Class label": "Condition not met"}

Origin of values: patent US9062041B2
